target: Cys12 of the KRAS 4B G12C protein (Homo sapiens, UniProt P01116, G12C); construct: This protein contained 188 amino acids in total, including an N-terminal 6-Histidine tag; made in house; host or cells: E. coli BL21; experiment: In vitro covalent adduct formation (CAF) assay, LC-MS intact mass; format: binding; conditions: after 60 min
Measured CAF (% binding after 60 min), listed per entry.
quantity_name: CAF (% binding after 60 min)

In [3]: df
Out[3]:
                                    compound                             target_entity  observed_value
 0  C=CC(=O)N1CCN(c2nc(=O)n3c4c(c(-c5cc(Cl)c(F)cc5F)c(C(F)(F)F)cc24)SC[C@H](OCCOC)C3)CC1  Cys12 of the KRAS 4B G12C protein (Homo sapiens, UniProt P01116, G12C)             85%
 1  C=CC(=O)N1[C@H](C)CN(c2nc(=O)n3c4c(c(-c5ccc(F)cc5F)c(C(F)(F)F)cc24)SC[C@@H](OCCN(C)C)C3)C[C@@H]1C  Cys12 of the KRAS 4B G12C protein (Homo sapiens, UniProt P01116, G12C)             97%
 2  C=CC(=O)N1CCN(c2nc(=O)n3c4c(c(-c5ccc(F)cc5)c(C(F)(F)F)cc24)SC[C@H](OC)C3)CC1  Cys12 of the KRAS 4B G12C protein (Homo sapiens, UniProt P01116, G12C)             96%
 3  C=CC(=O)N1[C@H](C)CN(c2nc(=O)n3c4c(c(-c5ccc(F)c(Cl)c5)c(C(F)(F)F)cc24)SC[C@@H](OCOC)C3)C[C@@H]1C  Cys12 of the KRAS 4B G12C protein (Homo sapiens, UniProt P01116, G12C)             96%
 4  C=CC(=O)N1[C@H](C)CN(c2nc(=O)n3c4c(c(-c5ccc(F)cc5F)c(C(F)(F)F)cc24)SC[C@H](OCOC)C3)C[C@@H]1C  Cys12 of the KRAS 4B G12C protein (Homo sapiens, UniProt P01116, G12C)             97%
 5  C=CC(=O)N1[C@H](C)CN(c2nc(=O)n3c4c(c(-c5ccc(F)cc5)c(C(F)(F)F)cc24)SC[C@@H](O)C3)C[C@@H]1C  Cys12 of the KRAS 4B G12C protein (Homo sapiens, UniProt P01116, G12C)             95%
 6  C=CC(=O)N1[C@H](C)CN(c2nc(=O)n3c4c(c(-c5ccc(F)c(Cl)c5)c(C(F)(F)F)cc24)SC[C@@H](OC)C3)C[C@@H]1C  Cys12 of the KRAS 4B G12C protein (Homo sapiens, UniProt P01116, G12C)             96%
 7  C=CC(=O)N1[C@H](C)CN(c2nc(=O)n3c4c(c(-c5ccc(F)cc5)c(Cl)cc24)SC[C@H](OC)C3)C[C@@H]1C  Cys12 of the KRAS 4B G12C protein (Homo sapiens, UniProt P01116, G12C)             96%
 8  C=CC(=O)N1CCN(c2nc(=O)n3c4c(c(-c5ccc(F)c(Cl)c5)c(C(F)(F)F)cc24)SC[C@H](OC)C3)CC1 [Example 1043]  Cys12 of the KRAS 4B G12C protein (Homo sapiens, UniProt P01116, G12C)             97%
 9  C=CC(=O)N1CCN(c2nc(=O)n3c4c(c(-c5ccc(F)c(Cl)c5)c(C(F)(F)F)cc24)SC[C@H](OCCOC)C3)CC1  Cys12 of the KRAS 4B G12C protein (Homo sapiens, UniProt P01116, G12C)             97%
10  C=CC(=O)N1CCN(c2nc(=O)n3c4c(c(-c5ccc(F)cc5)c(C(F)(F)F)cc24)SC[C@H](O)C3)CC1  Cys12 of the KRAS 4B G12C protein (Homo sapiens, UniProt P01116, G12C)             97%
11  C=CC(=O)N1[C@H](C)CN(c2nc(=O)n3c4c(c(-c5cc(Cl)c(F)cc5F)c(C(F)(F)F)cc24)SC[C@@H](OCCOC)C3)C[C@@H]1C  Cys12 of the KRAS 4B G12C protein (Homo sapiens, UniProt P01116, G12C)             95%
